B1: TPR t1 (parent)
chain: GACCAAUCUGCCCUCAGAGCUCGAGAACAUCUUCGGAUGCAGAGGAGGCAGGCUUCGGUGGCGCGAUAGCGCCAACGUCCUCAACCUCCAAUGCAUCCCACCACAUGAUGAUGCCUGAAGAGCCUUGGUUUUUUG

variants of: B1; assay: polymerase ribozyme fitness, log enrichment relative to wild type (log ratio); higher = more active; in vitro selection for triplet polymerase activity
Binary classification by polymerase ribozyme fitness (log ratio), with -4 as an inclusive lower bound for yes (1); all other cases are no (0).

# biopolymer.sequence, cat
records = [
    ("GACCAAUCUGCCCUCAGAGCUCGAGAACAUCUUCGGAUGCAGAGGAGGCAGGCUUCGGUGGCGCGAUAGCGUCAACGUCCUCAACCUCCAAUGCAUCCCACCACAUGAUGAUGCCUGCAGAGCCUUGGUUUUUUG [C72U A118C]", "yes (1)"),
]

Q: Is the recorded value of polymerase ribozyme fitness (log ratio) equal to or greater than -4 for this variant? GACCAAUCUGCCCUCACAGCUCGAGAACAUCUUUGGAUGCAUAGGAGGCAGGCUUCGGUGGCGCGAUAGAGCCAACGUCCUCAACCUCCAAUGCAUCCCACCACAUGAUGAUGCCUGAAGAGACUUGGUUUUUUG [G17C C34U G42U C70A C123A]
Ans: no (0)

Q: Is the recorded value of polymerase ribozyme fitness (log ratio) equal to or greater than -4 for this variant? GACCAAUCUGCCAUCAGAGCUCGAGAACAUCUUCGGAUGCAGAGGAGGCUGGCUUCGGUGGCGCGAUAGCGACAACGUCCUCAACCUCCAAUGCAUCCCACCACAUGAUGAUGCCUGAAGAGCCUUGGUUUUUUG [C13A A50U C72A]
Ans: yes (1)

Q: Is the recorded value of polymerase ribozyme fitness (log ratio) equal to or greater than -4 for this variant? GACCAAUCUGCCCUCAGAGCUCGAGAACAUCUUCGGAUGCAGAGGAGGCAGGCUUCGGUGGCGCGAUAUCGCCAACGUCCUCAACCUCCAAUGCAUCCCACCACAUGAUGAUGCCUGGAGAGCCUUGGUUUUUUG [G69U A118G]
Ans: yes (1)

Q: Is the recorded value of polymerase ribozyme fitness (log ratio) equal to or greater than -4 for this variant? GACCAAUCUGCCCUCAGAGCUCGAGAACAUCUUCGGAUGCAGAGGAGUCAGGCUUCGGUGGCGCGAUAGCGCCAACGUCCUCAACCUCCAAUGCAUCCCACCACAUGAUGAUGCCUGAAGAGCCUUGGUUUUUUG [G48U]
Ans: yes (1)

Q: Is the recorded value of polymerase ribozyme fitness (log ratio) equal to or greater than -4 for this variant? GACCAAUCUGCCCUCAGAGCUCGAGAACAUAUUCGGAUGCAGAGGAGGCAGGCUUCGGUGGCGCGAUAGCGCCAACGUCCUCAACCUCCAAUGCAUCCCACCACAUGAUGAUGCCUGAAGAGCCUUGGUUUUUUG [C31A]
Ans: no (0)

Values compiled from the RNAGym collection of RNA variant scans (doi:10.1073/pnas.2313332121).
